Test system: SN12C renal
assay_method_text: NCI tumour cell line growth inhibition, 48 h
Listing of entries alongside the reported TGI.

Previously resolved entries follow.
> print(dat)
                                   compound  value.observed
1                                NCCNC(=S)S        > 100 µM
2          CSc1nc2sc3cc(Cl)ccc3n2c(=N)c1C#N        > 100 µM
3                        O=[N+]([O-])O.[Ga]         6890 µM
4                          CC#C[I+]c1ccccc1         25.6 µM
5  CC1OC(OCC2COC(O)(Oc3c(-c4ccc(O)c(O)c4)oc4cc(O)cc(O)c4c3=O)C(O)C2O)C(O)C(O)C1O (stereo not given)        > 100 µM
6  NC(=S)N/N=C1/C(=O)N(c2ccc(Cl)cc2Cl)C(=O)C(=O)C1c1nc2ccccc2s1 (stereo not given)        > 100 µM
7  COc1ccc(-c2nc(-c3nc4ccc(OC)cc4[nH]3)cc3c2[nH]c2ccccc23)cc1        > 100 µM
8  N#Cc1ccnc(N2C(=O)CC[C@H]2C(=O)N(c2cncc(F)c2)[C@H](C(=O)NC2CC(F)(F)C2)c2ccccc2Cl)c1        > 100 µM

For `CCN(CC)CCCNc1nc2ccccc2c2[nH]c3ccc(OC)cc3c12` , write its TGI.
7.1 µM

Given O=C(OCC1OC(c2nn[nH]n2)C(OC(=O)c2ccccc2)C1OC(=O)c1ccccc1)c1ccccc1 (stereo not given) , respond with its TGI.
> 100 µM
